The origin of these recorded values is paper PMC5941726.

STUDY_TARGET: OATP1B1 (Homo sapiens, UniProt Q9Y6L6)
Sequence (Q9Y6L6 whole entry): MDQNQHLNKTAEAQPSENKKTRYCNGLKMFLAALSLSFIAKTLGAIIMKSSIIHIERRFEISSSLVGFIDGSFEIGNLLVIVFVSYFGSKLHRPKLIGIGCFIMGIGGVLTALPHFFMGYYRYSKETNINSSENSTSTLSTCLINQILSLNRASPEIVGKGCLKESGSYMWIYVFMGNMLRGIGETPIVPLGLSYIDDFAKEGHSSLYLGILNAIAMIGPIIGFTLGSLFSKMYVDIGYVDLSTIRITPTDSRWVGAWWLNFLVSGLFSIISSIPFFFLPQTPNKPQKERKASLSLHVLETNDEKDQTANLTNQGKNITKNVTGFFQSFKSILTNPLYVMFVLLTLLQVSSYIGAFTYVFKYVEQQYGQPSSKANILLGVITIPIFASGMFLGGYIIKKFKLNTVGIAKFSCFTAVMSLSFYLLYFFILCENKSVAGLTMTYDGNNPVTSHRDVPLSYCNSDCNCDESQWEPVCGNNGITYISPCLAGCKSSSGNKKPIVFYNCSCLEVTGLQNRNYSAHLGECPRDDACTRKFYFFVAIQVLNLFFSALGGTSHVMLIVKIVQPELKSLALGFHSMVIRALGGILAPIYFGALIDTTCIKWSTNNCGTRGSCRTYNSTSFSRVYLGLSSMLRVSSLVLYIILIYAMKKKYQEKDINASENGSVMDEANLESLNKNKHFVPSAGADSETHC
ASSAY: Inhibition of [^3H]estradiol-17β-glucuronide uptake in HEK cells expressing OATP1B1 (competition assay)
PROTOCOL_CONDITIONS: read-out: Km (Michaelis-Menten) of substrate uptake, 0–150 μM, 10 min 37°C
ENDPOINT_NAME: Km

So what Km did C[C@]12CC[C@@H]3c4ccc(O)cc4CC[C@H]3[C@@H]1CC[C@@H]2O[C@@H]1O[C@H](C(=O)O)[C@@H](O)[C@H](O)[C@H]1O [[^3H]EbG, [^3H]estradiol-17β-glucuronide] get with OATP1B1 (Homo sapiens, UniProt Q9Y6L6)?
11.7 µM

---

STUDY_TARGET: BSEP (Homo sapiens)
Sequence (O95342 whole entry, species assumed): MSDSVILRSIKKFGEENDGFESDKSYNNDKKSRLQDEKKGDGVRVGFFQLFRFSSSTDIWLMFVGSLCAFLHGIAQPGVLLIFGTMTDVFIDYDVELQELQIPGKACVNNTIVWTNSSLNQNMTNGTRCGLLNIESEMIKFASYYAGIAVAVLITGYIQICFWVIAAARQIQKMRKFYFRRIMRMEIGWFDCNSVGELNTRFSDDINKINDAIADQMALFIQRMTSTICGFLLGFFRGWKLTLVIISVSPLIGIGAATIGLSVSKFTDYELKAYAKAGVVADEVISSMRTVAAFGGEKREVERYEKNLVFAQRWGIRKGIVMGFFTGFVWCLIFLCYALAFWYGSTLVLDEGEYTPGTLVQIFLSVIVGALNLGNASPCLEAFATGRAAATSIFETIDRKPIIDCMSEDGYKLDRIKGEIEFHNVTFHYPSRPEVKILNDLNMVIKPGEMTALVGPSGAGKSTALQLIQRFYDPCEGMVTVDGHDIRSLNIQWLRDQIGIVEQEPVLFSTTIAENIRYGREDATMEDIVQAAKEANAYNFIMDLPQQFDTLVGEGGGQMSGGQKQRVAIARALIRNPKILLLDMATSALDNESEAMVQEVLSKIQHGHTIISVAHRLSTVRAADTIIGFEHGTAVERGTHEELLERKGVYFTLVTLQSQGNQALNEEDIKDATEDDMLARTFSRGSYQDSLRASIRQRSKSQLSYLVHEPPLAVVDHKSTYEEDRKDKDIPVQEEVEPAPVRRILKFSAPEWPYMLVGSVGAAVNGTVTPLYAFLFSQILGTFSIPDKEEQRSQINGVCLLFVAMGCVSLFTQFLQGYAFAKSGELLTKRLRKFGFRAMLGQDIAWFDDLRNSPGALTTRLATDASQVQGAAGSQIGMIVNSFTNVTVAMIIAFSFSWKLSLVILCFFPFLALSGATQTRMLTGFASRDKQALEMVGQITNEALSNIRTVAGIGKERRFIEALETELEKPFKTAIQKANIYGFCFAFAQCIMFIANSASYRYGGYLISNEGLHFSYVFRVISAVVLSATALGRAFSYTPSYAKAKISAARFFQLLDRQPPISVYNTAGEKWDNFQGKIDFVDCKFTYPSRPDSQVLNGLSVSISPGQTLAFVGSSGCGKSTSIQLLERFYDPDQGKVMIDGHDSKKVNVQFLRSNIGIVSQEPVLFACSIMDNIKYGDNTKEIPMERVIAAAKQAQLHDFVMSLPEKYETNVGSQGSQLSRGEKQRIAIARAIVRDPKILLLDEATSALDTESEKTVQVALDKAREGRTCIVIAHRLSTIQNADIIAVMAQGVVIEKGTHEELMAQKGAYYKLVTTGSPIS
ASSAY: Inhibition of [^3H]TC uptake in BSEP membrane vesicles (efflux assay)
As shown below, each of these compounds has a reported Ki value.

Consider the worked cases shown below.
Tell me the measured Ki of C[C@H](CCC(=O)O)[C@H]1CC[C@H]2[C@@H]3[C@H](O)C[C@@H]4C[C@H](F)CC[C@]4(C)[C@H]3C[C@H](O)[C@]12C , please.
199 µM

Tell me the measured Ki of C[C@H](CCC(=O)O)[C@H]1CC[C@H]2[C@@H]3[C@H](O)C[C@@H]4C[C@@H](F)CC[C@]4(C)[C@H]3CC[C@]12C , please.
48.2 µM

Please look at the following compound next.
Tell me the measured Ki of C[C@H](CCC(=O)NCC(=O)O)[C@H]1CC[C@H]2[C@@H]3[C@H](O)C[C@@H]4C[C@@H](F)CC[C@]4(C)[C@H]3C[C@H](O)[C@]12C , please.
87.4 µM

---

STUDY_TARGET: OATP1B1 (Homo sapiens)
ASSAY: cell-based
ENDPOINT_NAME: Ki (µM)
Write the answer as a number in µM, unit excluded.

So what Ki did C[C@H](CCC(=O)O)[C@H]1CC[C@H]2[C@@H]3[C@H](O)C[C@@H]4C[C@H](O)CC[C@]4(C)[C@H]3C[C@H](O)[C@]12C [CA, Cholic acid] get with OATP1B1 (Homo sapiens)?
42.7

---

ASSAY: LogD determination of the tracers
Assay type: physicochemical
ENDPOINT_NAME: logD
Give the figure only, with no unit attached.

Tell me the measured logD of C[C@H](CCC(=O)NCC(=O)O)[C@H]1CC[C@H]2[C@@H]3[C@H](O)C[C@@H]4C[C@@H]([18F])CC[C@]4(C)[C@H]3C[C@H](O)[C@]12C [3β-[^18F]FGCA, 3β-[^18F]fluoroglycocholic acid] , please.
0.011

Please look at the following molecule next.
Tell me the measured logD of C[C@H](CCC(=O)O)[C@H]1CC[C@H]2[C@@H]3[C@H](O)C[C@@H]4C[C@@H]([18F])CC[C@]4(C)[C@H]3CC[C@]12C [3β-[^18F]FCDCA, 3β-[^18F]fluorochenodeoxycholic acid] , please.
1.42

---

STUDY_TARGET: NTCP (Homo sapiens, UniProt Q14973)
Construct: host or cells: Chinese Hamster Ovary (CHO) cells
Sequence (Q14973 whole entry, species assumed): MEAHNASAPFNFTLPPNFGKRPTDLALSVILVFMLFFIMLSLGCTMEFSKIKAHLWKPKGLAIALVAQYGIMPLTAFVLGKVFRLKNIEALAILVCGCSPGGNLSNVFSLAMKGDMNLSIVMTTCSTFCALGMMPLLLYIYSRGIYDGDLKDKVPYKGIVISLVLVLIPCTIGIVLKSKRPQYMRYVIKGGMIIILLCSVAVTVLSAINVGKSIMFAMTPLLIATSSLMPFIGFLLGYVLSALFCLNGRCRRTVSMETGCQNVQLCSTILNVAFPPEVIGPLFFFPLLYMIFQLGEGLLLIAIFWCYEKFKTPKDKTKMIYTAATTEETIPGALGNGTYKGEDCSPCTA
ASSAY: Inhibition of [^3H]taurocholate uptake in CHO cells expressing NTCP (competition assay)
Format: cell-based
PROTOCOL_CONDITIONS: 1 μM [^3H]TC, 15 min 37°C, Cheng-Prusoff from IC50 and Km, mean ± SD n = 3
As shown below, each of these molecules has a reported Ki value.
Write the answer as a number in nM, unit excluded.

Consider the worked cases shown below.
Tell me the measured Ki of C[C@H](CCC(=O)NCC(=O)O)[C@H]1CC[C@H]2[C@@H]3[C@H](O)C[C@@H]4C[C@@H](F)CC[C@]4(C)[C@H]3C[C@H](O)[C@]12C , please.
1090

Tell me the measured Ki of C[C@H](CCC(=O)O)[C@H]1CC[C@H]2[C@@H]3[C@H](O)C[C@@H]4C[C@H](O)CC[C@]4(C)[C@H]3C[C@@H](F)[C@]12C , please.
30100

Tell me the measured Ki of C[C@H](CCC(=O)O)[C@H]1CC[C@H]2[C@@H]3[C@H](O)C[C@@H]4C[C@H](F)CC[C@]4(C)[C@H]3C[C@H](O)[C@]12C , please.
2530

Please look at the following molecule next.
Tell me the measured Ki of C[C@H](CCC(=O)O)[C@H]1CC[C@H]2[C@@H]3[C@H](O)C[C@@H]4C[C@@H](F)CC[C@]4(C)[C@H]3CC[C@]12C , please.
910
